Measured values drawn from patent US20210388087A1 for this set.

Form field: fold change of affinity (one value per entry).
Target: T1, Human CD3eg linker (human)
T1 construct: Single-chain construct; also called recombinant human CD3
T1 chain: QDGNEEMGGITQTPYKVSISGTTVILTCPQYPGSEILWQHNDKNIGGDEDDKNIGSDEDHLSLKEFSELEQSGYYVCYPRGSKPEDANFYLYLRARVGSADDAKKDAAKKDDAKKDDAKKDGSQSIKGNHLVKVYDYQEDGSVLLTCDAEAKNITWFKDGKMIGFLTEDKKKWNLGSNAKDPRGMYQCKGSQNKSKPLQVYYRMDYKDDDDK
Assay: SPR; fold vs parent H183/L072
Reply with just the number (in fold).

Reference set (4 entries):
{"binder": "H183/L072 VL A25I (antibody, name in Kabat numbering, V domains shown) VH: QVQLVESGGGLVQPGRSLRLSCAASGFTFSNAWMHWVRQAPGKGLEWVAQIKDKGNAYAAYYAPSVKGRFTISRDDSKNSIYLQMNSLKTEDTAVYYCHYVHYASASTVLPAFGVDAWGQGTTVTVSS VL: DIVMTQSPLSLPVTPGEPASISCQISQELVHMNRNTYLHWYQQKPGQAPRLLIYKVSNRFPGVPDRFSGSGSGTDFTLKISRVEAEDVGVYYCAQGTSVPFTFGQGTKLEIK", "unit.tag": "fold", "fold change of affinity": 0.3}
{"binder": "H183/L072 VL H27dT (antibody, name in Kabat numbering, V domains shown) VH: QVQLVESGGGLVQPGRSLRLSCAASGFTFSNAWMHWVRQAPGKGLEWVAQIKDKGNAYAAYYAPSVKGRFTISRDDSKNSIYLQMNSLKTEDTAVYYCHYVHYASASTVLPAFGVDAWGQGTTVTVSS VL: DIVMTQSPLSLPVTPGEPASISCQASQELVTMNRNTYLHWYQQKPGQAPRLLIYKVSNRFPGVPDRFSGSGSGTDFTLKISRVEAEDVGVYYCAQGTSVPFTFGQGTKLEIK", "unit.tag": "fold", "fold change of affinity": 0}
{"binder": "H183/L072 VL E27aS (antibody, name in Kabat numbering, V domains shown) VH: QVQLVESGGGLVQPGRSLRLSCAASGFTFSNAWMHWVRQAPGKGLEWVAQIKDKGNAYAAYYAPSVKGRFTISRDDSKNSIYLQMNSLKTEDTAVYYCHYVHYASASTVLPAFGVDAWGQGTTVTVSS VL: DIVMTQSPLSLPVTPGEPASISCQASQSLVHMNRNTYLHWYQQKPGQAPRLLIYKVSNRFPGVPDRFSGSGSGTDFTLKISRVEAEDVGVYYCAQGTSVPFTFGQGTKLEIK", "unit.tag": "fold", "fold change of affinity": 1.3}
{"binder": "H183/L072 VL R54M (antibody, name in Kabat numbering, V domains shown) VH: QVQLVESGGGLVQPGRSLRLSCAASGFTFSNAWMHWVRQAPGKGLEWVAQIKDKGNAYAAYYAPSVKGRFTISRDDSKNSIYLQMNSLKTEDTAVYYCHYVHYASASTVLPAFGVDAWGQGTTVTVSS VL: DIVMTQSPLSLPVTPGEPASISCQASQELVHMNRNTYLHWYQQKPGQAPRLLIYKVSNMFPGVPDRFSGSGSGTDFTLKISRVEAEDVGVYYCAQGTSVPFTFGQGTKLEIK", "unit.tag": "fold", "fold change of affinity": 1.7}

Returns the measured fold change of affinity for the input binder. Input: H183/L072 VL V94H (antibody, name in Kabat numbering, V domains shown) VH: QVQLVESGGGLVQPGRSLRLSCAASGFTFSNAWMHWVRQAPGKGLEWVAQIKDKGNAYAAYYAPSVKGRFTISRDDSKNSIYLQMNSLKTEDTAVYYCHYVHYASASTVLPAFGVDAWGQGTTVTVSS VL: DIVMTQSPLSLPVTPGEPASISCQASQELVHMNRNTYLHWYQQKPGQAPRLLIYKVSNRFPGVPDRFSGSGSGTDFTLKISRVEAEDVGVYYCAQGTSHPFTFGQGTKLEIK
0.8
